Assay: Solvent screening (solubility of compound A)
Assay type: physicochemical
Details: organic solvent or mixture, thermodynamic from solid; Pyridine; Sonication, RT
measuredMetric: solubility

Looking up `CC(C)(C)c1cc(-c2cc(-c3ccc(C(=O)O)cc3)ccc2OCCO)ccc1N1CCCC1` , I see its solubility listed as 34.5 mg/mL

----------
Experiment: Solvent screening (solubility of compound A)
Assay type: physicochemical
Details: organic solvent or mixture, thermodynamic from solid; Ethanol; Sonication, RT
measuredMetric: solubility (µg/mL)
Provide the reading as a plain figure in µg/mL.

Looking up `CC(C)(C)c1cc(-c2cc(-c3ccc(C(=O)O)cc3)ccc2OCCO)ccc1N1CCCC1` , I see its solubility listed as 4900

----------
Experiment: Solvent screening (solubility of compound A)
Format: physicochemical
Settings: organic solvent or mixture, thermodynamic from solid; Isopropanol; Sonication, RT
measuredMetric: solubility (µg/mL)
Provide the reading as a plain figure in µg/mL.

Looking up `CC(C)(C)c1cc(-c2cc(-c3ccc(C(=O)O)cc3)ccc2OCCO)ccc1N1CCCC1` , I see its solubility listed as 3000

----------
Assay: Solvent screening (solubility of compound A)
Type: physicochemical
Conditions: thermodynamic from solid; Water; Sonication, T = 45° C.
measuredMetric: solubility

Looking up `CC(C)(C)c1cc(-c2cc(-c3ccc(C(=O)O)cc3)ccc2OCCO)ccc1N1CCCC1` , I see its solubility listed as < 50 µg/mL
